# measurement description: NCI Yeast Anticancer Drug Screen. Data for the bub3 strain (AID 167)
# experimental setup: S. cerevisiae bub3 mutant strain, at 50.0 µM (retest, dose inferred, filed as 5.0), stronger effect = higher value
Compounds without any hit were thinned out: in the full panel of roughly 79,000, 15% have a hit.
Binary call on growth inhibition: 1.0 from 90% upward, 0.0 beneath that.

Problem: Does growth inhibition meet or surpass 90% for O=C(NC(=O)C(F)(F)F)Nc1ccc(Cl)cc1 ?
Result: 0.0

Problem: Does growth inhibition meet or surpass 90% for CCCC1c2ccc(O)cc2CC1c1ccc(O)cc1 (configuration not stated) ?
Result: 1.0

Problem: Does growth inhibition meet or surpass 90% for O=[N+]([O-])c1ccc2nc(CCl)[nH]c2c1 ?
Result: 0.0

Problem: Does growth inhibition meet or surpass 90% for CCC(C)SSc1ccccc1C(=O)Nc1ccc(Cl)cc1 (configuration not stated) ?
Result: 1.0

Problem: Does growth inhibition meet or surpass 90% for CCOC(=O)C(C(=O)OCC)C(=O)c1ccc2c(c1)OCO2 ?
Result: 0.0

Problem: Does growth inhibition meet or surpass 90% for COc1nc(NC2OCC(O)C(O)C2O)c(Cl)c(=O)n1C (configuration not stated) ?
Result: 0.0

Problem: Does growth inhibition meet or surpass 90% for O=C(Nc1cc(Cl)cc(Cl)c1)C(F)(F)F ?
Result: 1.0

Problem: Does growth inhibition meet or surpass 90% for N#CS/C(Cl)=C(/C(Cl)=C(Cl)Cl)[N+](=O)[O-] ?
Result: 1.0

Problem: Does growth inhibition meet or surpass 90% for CC(=O)N1C(C(=O)NNc2ccccc2)CSC1c1ccccc1 (configuration not stated) ?
Result: 1.0

Problem: Does growth inhibition meet or surpass 90% for Nc1ccc(Oc2ccc(-c3ccccc3)cc2)c(Cl)c1 ?
Result: 1.0

Problem: Does growth inhibition meet or surpass 90% for Cc1[nH]c2c(C)cccc2c1C1Cc2ccccc2N1 (configuration not stated) ?
Result: 1.0

Problem: Does growth inhibition meet or surpass 90% for CCCCOc1ccc(CN2CCOC2=O)cc1 ?
Result: 0.0

###

# measurement description: NCI Yeast Anticancer Drug Screen. Data for the mlh1 rad18 strain (AID 175)
# experimental setup: S. cerevisiae mlh1 rad18 strain growth inhibition; at 5.0 µM (retest, dose inferred, filed as 0.5); stronger effect = higher value
About 79,000 compounds went through this panel and 15% of them were active in at least one assay; those are over-represented in the sample as a whole.
assay metric: growth inhibition (%)
Field format: number, assumed %, no unit text.

Problem: Given the molecule C[n+]1c(/C=C/c2ccc(Cl)cc2)sc2ccccc21 , write its reported growth inhibition.
Result: 11

Problem: Given the molecule CC(C)(C)OC(=O)CSC#N , write its reported growth inhibition.
Result: 15

Problem: Given the molecule COc1ccc(N2CCN(CC(O)COc3cc4c(c5c3CCCC5)CCCC4)CC2)cc1 (stereo not drawn) , write its reported growth inhibition.
Result: 9

Problem: Given the molecule Cc1cc(C)c(CCCC(=O)c2c(C)cc(C)cc2C)c(C)c1 , write its reported growth inhibition.
Result: -3

Problem: Given the molecule O=C(Cc1nc2ccc([N+](=O)[O-])cc2[nH]c1=O)C(=O)Nc1cc(Cl)c(Cl)cc1Cl , write its reported growth inhibition.
Result: -4

Problem: Given the molecule Cc1cccc(N2CCN(CC(O)COc3ccc4ccccc4c3)CC2)c1 (stereo not drawn) , write its reported growth inhibition.
Result: 26

Problem: Given the molecule CCN(CC)Cc1cc(Nc2c3ccccc3nc3c2[nH]c2ccccc23)ccc1O , write its reported growth inhibition.
Result: -1

Problem: Given the molecule CCOC(=O)C1CCC(=O)O1 (stereo not drawn) , write its reported growth inhibition.
Result: -1

Problem: Given the molecule O=C(/C=C/c1ccc2c(c1)OCO2)c1ccc(O)cc1 , write its reported growth inhibition.
Result: -33

Problem: Given the molecule ClCCOCCOc1c(Cl)cc(Cl)c(Cl)c1Cl , write its reported growth inhibition.
Result: 9

Problem: Given the molecule CN(C)c1cc[c]([Sn]([c]2ccc(N(C)C)cc2)([c]2ccc(N(C)C)cc2)[c]2ccc(N(C)C)cc2)cc1 , write its reported growth inhibition.
Result: -18

Problem: Given the molecule Cc1ccc2c(c1)CSCCO2 , write its reported growth inhibition.
Result: 92

Problem: Given the molecule CC(=O)NNc1nc(C)c(C(=O)NNC(=O)C(=O)Nc2ccc(Cl)c([N+](=O)[O-])c2)s1 , write its reported growth inhibition.
Result: 20

Problem: Given the molecule Cc1ccc(S(=O)(=O)Nn2c(S)c(C#N)c(-c3ccc([N+](=O)[O-])cc3)c(C#N)c2=O)cc1 , write its reported growth inhibition.
Result: 19

Problem: Given the molecule COc1ccc(CN2CCCN(Cc3ccc(OC)cc3OC)C2c2cc(Cl)ccc2O)c(OC)c1 , write its reported growth inhibition.
Result: 17

Problem: Given the molecule COc1ccc(C(c2ccc(OC)c(OC)c2)C(Cl)(Cl)Cl)cc1OC , write its reported growth inhibition.
Result: 6

Problem: Given the molecule Nc1ccc(C(=O)Nc2ccc(C(=O)Nc3ccc(/C=C/c4ccc(NC(=O)c5ccc(N)cc5)cc4S(=O)(=O)O)c(S(=O)(=O)O)c3)cc2)cc1 , write its reported growth inhibition.
Result: -15

Problem: Given the molecule O=C1/C(=C/c2ccccc2[N+](=O)[O-])COc2ccccc21 , write its reported growth inhibition.
Result: 23

Problem: Given the molecule NC(=O)C#CC#CC#CCO , write its reported growth inhibition.
Result: 19

Problem: Given the molecule O=C(CC1(O)C(=O)Nc2c(Cl)cc(Cl)cc21)c1ccc(Br)cc1Br (stereo not drawn) , write its reported growth inhibition.
Result: 58

Problem: Given the molecule CS(=O)(=O)n1c(C(O)c2ccccc2)nc2ccccc21 (stereo not drawn) , write its reported growth inhibition.
Result: 0

Problem: Given the molecule NC(=S)SCCC(=O)O , write its reported growth inhibition.
Result: -16

Problem: Given the molecule CCC(=O)Oc1c(Br)c(Br)c(Br)c(Br)c1Br , write its reported growth inhibition.
Result: 35

Problem: Given the molecule Cc1ccc(S(=O)(=O)/C=C2\COc3ccccc3C2=O)cc1 , write its reported growth inhibition.
Result: 79

Problem: Given the molecule O=C(N(c1ccc(Cl)cc1)c1ccc(Cl)cc1)C(Cl)(Cl)Cl , write its reported growth inhibition.
Result: 38

Problem: Given the molecule CCOC(=O)CCC(=O)Oc1ccc2c(c1OC(=O)CCC(=O)OCC)C(=O)c1ccccc1C2=O , write its reported growth inhibition.
Result: 22

Problem: Given the molecule COc1ccc2nc3cc(Cl)ccc3c(NCCC[N+](C)(C)CCCCCCCCCCCCCCCC[N+](C)(C)CCCNc3c4ccc(Cl)cc4nc4ccc(OC)cc34)c2c1 , write its reported growth inhibition.
Result: 92

Problem: Given the molecule COC(=O)C(=O)CC(=O)c1cccc(Cl)c1 , write its reported growth inhibition.
Result: 12

Problem: Given the molecule CCCCCCCCCCC[N+](C)(C)CCCCCC[N+](C)(C)CCCCCCCCCCC , write its reported growth inhibition.
Result: 97

Problem: Given the molecule C=C1C(=O)[C@]23C[C@H]1CC[C@H]2[C@@]12CO[C@@H](O)[C@@H]1C(C)(C)[C@@H](O)C[C@@H]2OC3=O , write its reported growth inhibition.
Result: -1

Problem: Given the molecule CC(C)(C)CC(C)(C)N[P+](NC(C)(C)CC(C)(C)C)(NC(C)(C)CC(C)(C)C)NC(C)(C)CC(C)(C)C , write its reported growth inhibition.
Result: 94

Problem: Given the molecule CCN(CC)C(=S)N/N=C(/c1ccccc1)c1ccccn1 , write its reported growth inhibition.
Result: 96

Problem: Given the molecule O=c1ccn(C2OC(COC(c3ccccc3)(c3ccccc3)c3ccccc3)C(O)C2O)c(=O)[nH]1 (stereo not drawn) , write its reported growth inhibition.
Result: 31

Problem: Given the molecule CN(C)C1CCC2C3CCC4=CC(=O)CCC4(C)C3CCC21C (stereo not drawn) , write its reported growth inhibition.
Result: 2

Problem: Given the molecule CC(Br)C(=O)c1ccc(OCc2ccccc2)cc1 (stereo not drawn) , write its reported growth inhibition.
Result: 13

Problem: Given the molecule CCCCCN(CCC)CCCCCCCCCN1CCCc2cc(OC)ccc21 , write its reported growth inhibition.
Result: -5

Problem: Given the molecule CCCn1cnc2c(SCc3ccc(Cl)cc3Cl)nc(N)nc21 , write its reported growth inhibition.
Result: 11

Problem: Given the molecule O=C(Nc1ccc(Br)cc1)c1c(-c2ccccc2)c2ccc(O)cc2oc1=O , write its reported growth inhibition.
Result: -3

Problem: Given the molecule Brc1cccc[n+]1Cc1cc2ccccc2c2ccccc12 , write its reported growth inhibition.
Result: 1

Problem: Given the molecule O=C1CC(c2ccccc2)c2c(ccc3ccccc23)O1 (stereo not drawn) , write its reported growth inhibition.
Result: -1

Problem: Given the molecule Cc1ccnc2sc3ccccc3c(=O)c12 , write its reported growth inhibition.
Result: 11

Problem: Given the molecule N#Cc1ccc([N+](=O)[O-])cc1C#N , write its reported growth inhibition.
Result: -135

Problem: Given the molecule CCCN(CCC)c1ccc(/C=C/c2ccnc3ccccc23)cc1 , write its reported growth inhibition.
Result: -7
